Measured kon, listed per entry for reference.
Molecular target: T1, extracellular domain of human IL-4Rα (residues 26–232), C-terminal 6× His (human, UniProt P24394)
T1 construct: human interleukin-4 receptor alpha subunit, extracellular domain, residues 26-232; Subcloned into the pSecTag2A vector; N-glycosylated (~45 kDa, ~26 kDa after PNGase F); also called wild-type IL-4Rα; soluble IL-4Rα; source: HEK293F, transiently transfected, purified (Ni-NTA); not shown: His6, C-terminal, kept
T1 sequence (P24394 26-232): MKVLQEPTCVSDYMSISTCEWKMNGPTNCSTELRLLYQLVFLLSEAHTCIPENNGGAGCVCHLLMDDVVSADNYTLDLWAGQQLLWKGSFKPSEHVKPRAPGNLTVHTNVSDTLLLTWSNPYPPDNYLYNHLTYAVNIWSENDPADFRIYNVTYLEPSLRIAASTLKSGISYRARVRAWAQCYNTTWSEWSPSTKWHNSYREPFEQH
Experiment: BLI; OctetRED96; Ab (1 μg/mL) captured on anti-human IgG Fc capture (AHC) biosensors at low density (0.6 to 0.8 nm), soluble monomeric IL-4Rα as analyte; 25 °C, PBS pH 7.4, 0.02% Tween 20; association 300 s, dissociation 600-900 s; 1:1 binding model
Details: both partners purified
State the answer as a number, implicitly in M⁻¹ s⁻¹.

>>> observed_value("4R34.1.11, human IgG1 (antibody, V domains shown) VH: EVQLLESGGGLVQPGGSLRLSCAASGFTFSNYAMSWVRQAPGKGLEWVSAITSSGRSIYYADSVKGRFTISRDNSKNTLYLQMNSLRAEDTAVYYCARVHRAFDYWGQGTLVTVSS VL: QSVLTQPPSASGTPGQRVTISCSGSSANSRTDGFNWYQQLPGTAPKLLIYADSHRPSGVPDRFSGSKSGTSASLAISGLRSEDEADYYCGTWDYSLRGYVLGGGTKLTVL")
"4.62e+06"
>>> observed_value("4R34, human IgG1 (antibody, V domains shown) VH: EVQLLESGGGLVQPGGSLRLSCAASGFTFSNYAMSWVRQAPGKGLEWVSAISSGGGNIYYADSVKGRFTISRDNSKNTLYLQMNSLRAEDTAVYYCARVHRAFDYWGQGTLVTVSS VL: QSVLTQPPSASGTPGQRVTISCSGSSSNIGSNTFNWYQQLPGTAPKLLIYADSHRPSGVPDRFSGSKSGTSASLAISGLRSEDEADYYCGTWDYSLSGYVLGGGTKLTVL")
"3.47e+06"

Please look at the following binder next.
Input: kon for 4R34.2, human IgG1 (antibody, V domains shown) VH: EVQLLESGGGLVQPGGSLRLSCAASGFTFSNYAMSWVRQAPGKGLEWVSAITSSGANIYYADSVKGRFTISRDNSKNTLYLQMNSLRAEDTAVYYCARVHRAFDYWGQGTLVTVSS VL: QSVLTQPPSASGTPGQRVTISCSGSSSNIGSNTFNWYQQLPGTAPKLLIYADSHRPSGVPDRFSGSKSGTSASLAISGLRSEDEADYYCGTWDYSLRGYVLGGGTKLTVL ?
Output: 4.7e+06

Reference source: paper PMC6533264
